# Tested on: 616215-338-R-J1-PDC complex spheroids, viability % test/control;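 further: spheroids exposed to agents for 7 days; 100% = DMSO vehicle wells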
# protocol-summary: Anticancer human tumor 616215-338-R-J1-PDC patient-derived colon adenocarcinoma cell line growth inhibition [CLK]
# test-conditions: second compound 0.1 µM; first compound 0.00316 µM; stronger effect = lower value
metric: viability, T/C (%)

[[record]]
compound = "Cn1ncnc1[C@H]1c2n[nH]c(=O)c3cc(F)cc(c23)N[C@@H]1c1ccc(F)cc1 + CN1CCN(c2cc(C(=O)Nc3cc4cc(-c5cnn(C)c5)ccc4cn3)ccn2)CC1"
metric = "viability, T/C"
unit_of_measurement = "%"
measured_number = 102

[[record]]
compound = "CCN1CCN(Cc2ccc(Nc3ncc(F)c(-c4cc(F)c5nc(C)n(C(C)C)c5c4)n3)nc2)CC1 + CN1CCN(c2cc(C(=O)Nc3cc4cc(-c5cnn(C)c5)ccc4cn3)ccn2)CC1"
metric = "viability, T/C"
unit_of_measurement = "%"
measured_number = 114

[[record]]
compound = "COc1c(OCCCN2CCOCC2)ccc2c3n(c(=NC(=O)c4cnc(N)nc4)nc12)CCN3 + CN1CCN(c2cc(C(=O)Nc3cc4cc(-c5cnn(C)c5)ccc4cn3)ccn2)CC1"
metric = "viability, T/C"
unit_of_measurement = "%"
measured_number = 110

[[record]]
compound = "CCc1c2c(nc3ccc(O)cc13)-c1cc3c(c(=O)n1C2)COC(=O)[C@]3(O)CC + CN1CCN(c2cc(C(=O)Nc3cc4cc(-c5cnn(C)c5)ccc4cn3)ccn2)CC1"
metric = "viability, T/C"
unit_of_measurement = "%"
measured_number = 50.8

[[record]]
compound = "COc1c(OCCCN2CCOCC2)ccc2c3n(c(=NC(=O)c4cnc(N)nc4)nc12)CCN3 + CNC(=O)c1ccc(Nc2nc(OC3CCCC3)c3c(-c4ccc5nc(C)oc5c4)c[nH]c3n2)c(OC)c1"
metric = "viability, T/C"
unit_of_measurement = "%"
measured_number = 62.4

[[record]]
compound = "CCN1CCN(Cc2ccc(Nc3ncc(F)c(-c4cc(F)c5nc(C)n(C(C)C)c5c4)n3)nc2)CC1 + CNC(=O)c1ccc(Nc2nc(OC3CCCC3)c3c(-c4ccc5nc(C)oc5c4)c[nH]c3n2)c(OC)c1"
metric = "viability, T/C"
unit_of_measurement = "%"
measured_number = 51.6

[[record]]
compound = "Cn1ncnc1[C@H]1c2n[nH]c(=O)c3cc(F)cc(c23)N[C@@H]1c1ccc(F)cc1 + CNC(=O)c1ccc(Nc2nc(OC3CCCC3)c3c(-c4ccc5nc(C)oc5c4)c[nH]c3n2)c(OC)c1"
metric = "viability, T/C"
unit_of_measurement = "%"
measured_number = 47.9

[[record]]
compound = "CCc1c2c(nc3ccc(O)cc13)-c1cc3c(c(=O)n1C2)COC(=O)[C@]3(O)CC + CNC(=O)c1ccc(Nc2nc(OC3CCCC3)c3c(-c4ccc5nc(C)oc5c4)c[nH]c3n2)c(OC)c1"
metric = "viability, T/C"
unit_of_measurement = "%"
measured_number = 56.9

